Target: Peptidyl-prolyl cis-trans isomerase FKBP4 (Homo sapiens, UniProt Q02790)
Experiment: Binding affinity to FKBP52 FK1 domain (1 to 148 residues) (unknown origin) by isothermal calorimetric analysis
Square brackets hold non-standard residues; d marks the D form. Peptide text beside a SMILES is read from it. * marks the point of attachment. Pro(trans-4-F) = O=C(O)[C@@H]1C[C@@H](F)CN1; Dansyl = CN(C)c1cccc2c(S(=O)(=O)*)cccc12; hPhe = N[C@@H](CCc1ccccc1)C(=O)O; 2Pal = N[C@@H](Cc1ccccn1)C(=O)O; Pip = O=C(O)[C@@H]1CCCCN1
I'd appreciate it if you could supply Kd values for the items below.
Your answer is read as µM, so omit the unit and give the number.

Record request: Kd value, item "CN(C)c1cccc2c(S(=O)(=O)N3CCC[C@H]3C(=O)N[C@@H](CCc3ccccc3)C(=O)N[C@@H](CCCNC(=N)N)C(=O)O)cccc12"
5

Record request: Kd value, item CN(C)c1cccc2c(S(=O)(=O)N3C[C@H](F)C[C@H]3C(=O)N[C@@H](CCc3ccccc3)C(=O)N[C@@H](CCCNC(=N)N)C(=O)O)cccc12 (Dansyl-[Pro(trans-4-F)]-[hPhe]-Arg-OH)
20

Record request: Kd value, item CN(C)c1cccc2c(S(=O)(=O)N3CCCC[C@H]3C(=O)N[C@@H](CCc3ccccc3)C(=O)N[C@@H](CCCNC(=N)N)C(=O)O)cccc12 (Dansyl-[Pip]-[hPhe]-Arg-OH)
1.6

Record request: Kd value, item CN(C)c1cccc2c(S(=O)(=O)N3CCCC[C@H]3C(=O)N[C@@H](Cc3ccccc3)C(=O)N[C@@H](CCCNC(=N)N)C(=O)O)cccc12 (Dansyl-[Pip]-Phe-Arg-OH)
5.8

Record request: Kd value, item CN(C)c1cccc2c(S(=O)(=O)N3CCCC[C@H]3C(=O)N[C@@H](Cc3ccccn3)C(=O)N[C@@H](CCCNC(=N)N)C(=O)O)cccc12 (Dansyl-[Pip]-[2Pal]-Arg-OH)
3.5

---

Target: Peptidyl-prolyl cis-trans isomerase FKBP4 (Homo sapiens)
Test: Binding affinity to FKBP52 FK1 domain (1 to 148 residues) (unknown origin) by isothermal calorimetric analysis
pKd: −log10 of the molar value. Square brackets hold non-standard residues; d marks the D form. Peptide text beside a SMILES is read from it. * marks the point of attachment. Dansyl = CN(C)c1cccc2c(S(=O)(=O)*)cccc12; 3Pal = N[C@@H](Cc1cccnc1)C(=O)O; 4Pal = N[C@@H](Cc1ccncc1)C(=O)O; Pip = O=C(O)[C@@H]1CCCCN1
Quantity Kind: pKd

Record request: pKd value, item CN(C)c1cccc2c(S(=O)(=O)N3CCCC[C@H]3C(=O)N[C@@H](Cc3cccnc3)C(=O)N[C@@H](CCCNC(=N)N)C(=O)O)cccc12 (Dansyl-[Pip]-[3Pal]-Arg-OH)
5.52

Record request: pKd value, item "CN(C)c1cccc2c(S(=O)(=O)N3CCC[C@@H]3C(=O)N[C@@H](CCc3ccccc3)C(=O)N[C@@H](CCCNC(=N)N)C(=O)O)cccc12"
< 4.30

Record request: pKd value, item CN(C)c1cccc2c(S(=O)(=O)N3CCCC[C@H]3C(=O)N[C@@H](Cc3ccncc3)C(=O)N[C@@H](CCCNC(=N)N)C(=O)O)cccc12 (Dansyl-[Pip]-[4Pal]-Arg-OH)
< 4.30

---

Target: Peptidyl-prolyl cis-trans isomerase FKBP4 (Homo sapiens)
Experiment: Binding affinity to FKBP52 FK1 domain (1 to 148 residues) (unknown origin) by Dansyl fluorescence based assay
Square brackets hold non-standard residues; d marks the D form. Peptide text beside a SMILES is read from it. * marks the point of attachment. Dansyl = CN(C)c1cccc2c(S(=O)(=O)*)cccc12; hPhe = N[C@@H](CCc1ccccc1)C(=O)O; Tic = O=C(O)[C@@H]1Cc2ccccc2CN1; Pip = O=C(O)[C@@H]1CCCCN1
Quantity Kind: Kd

Record request: Kd value, item CN(C)c1cccc2c(S(=O)(=O)N3CCCC[C@H]3C(=O)N[C@@H](Cc3c[nH]c4ccccc34)C(=O)N[C@@H](CCCNC(=N)N)C(=O)O)cccc12 (Dansyl-[Pip]-Trp-Arg-OH)
20 µM

Record request: Kd value, item CN(C)c1cccc2c(S(=O)(=O)N3Cc4ccccc4C[C@H]3C(=O)N[C@@H](CCc3ccccc3)C(=O)N[C@@H](CCCNC(=N)N)C(=O)O)cccc12 (Dansyl-[Tic]-[hPhe]-Arg-OH)
> 50 µM

Record request: Kd value, item "CN(C)c1cccc2c(S(=O)(=O)N3[C@H](C(=O)N[C@@H](CCc4ccccc4)C(=O)N[C@@H](CCCNC(=N)N)C(=O)O)CCC3(C)C)cccc12"
> 50 µM

---

I'd appreciate it if you could supply pKd values for the items below.
Molecular target: Peptidyl-prolyl cis-trans isomerase FKBP4 (Homo sapiens, UniProt Q02790)
Experiment: Binding affinity to FKBP52 FK1 domain (1 to 148 residues) (unknown origin) by isothermal calorimetric analysis
Square brackets hold non-standard residues; d marks the D form. Peptide text beside a SMILES is read from it. * marks the point of attachment. Dansyl = CN(C)c1cccc2c(S(=O)(=O)*)cccc12; Pro(cis-4-F) = O=C(O)[C@@H]1C[C@H](F)CN1; hPhe = N[C@@H](CCc1ccccc1)C(=O)O; Pip = O=C(O)[C@@H]1CCCCN1; Ac5c = NC1(C(=O)O)CCCC1
Please treat pKd as minus the base-10 logarithm of the molar concentration.

Record request: pKd value, item CN(C)c1cccc2c(S(=O)(=O)N3C[C@@H](F)C[C@H]3C(=O)N[C@@H](CCc3ccccc3)C(=O)N[C@@H](CCCNC(=N)N)C(=O)O)cccc12 (Dansyl-[Pro(cis-4-F)]-[hPhe]-Arg-OH)
5.89

Record request: pKd value, item CN(C)c1cccc2c(S(=O)(=O)N3CCCC[C@H]3C(=O)NC3(C(=O)N[C@@H](CCCNC(=N)N)C(=O)O)CCCC3)cccc12 (Dansyl-[Pip]-[Ac5c]-Arg-OH)
5.00

Record request: pKd value, item CN(C)c1cccc2c(S(=O)(=O)N3CCCC[C@H]3C(=O)N3CCCC[C@H]3C(=O)N[C@@H](CCCNC(=N)N)C(=O)O)cccc12 (Dansyl-[Pip]-[Pip]-Arg-OH)
5.96

---

Biological target: Peptidyl-prolyl cis-trans isomerase FKBP4 (Homo sapiens)
Sequence (Q02790 whole entry): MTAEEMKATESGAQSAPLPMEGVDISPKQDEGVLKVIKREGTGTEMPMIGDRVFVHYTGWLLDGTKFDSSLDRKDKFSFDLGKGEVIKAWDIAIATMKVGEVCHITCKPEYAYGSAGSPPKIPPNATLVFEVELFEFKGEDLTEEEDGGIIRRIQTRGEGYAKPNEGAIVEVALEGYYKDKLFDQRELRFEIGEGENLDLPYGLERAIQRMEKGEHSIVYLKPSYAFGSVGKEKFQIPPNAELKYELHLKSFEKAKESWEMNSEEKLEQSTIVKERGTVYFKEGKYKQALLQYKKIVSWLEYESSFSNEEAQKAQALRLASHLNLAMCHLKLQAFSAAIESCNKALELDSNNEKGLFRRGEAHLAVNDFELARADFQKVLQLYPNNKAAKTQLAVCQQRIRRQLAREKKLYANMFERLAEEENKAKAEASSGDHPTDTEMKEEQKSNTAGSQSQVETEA
Experiment: Binding affinity to FKBP52 FK1 domain (1 to 148 residues) (unknown origin) by isothermal calorimetric analysis
Square brackets hold non-standard residues; d marks the D form. Peptide text beside a SMILES is read from it. * marks the point of attachment. Dansyl = CN(C)c1cccc2c(S(=O)(=O)*)cccc12; Hyp = O=C(O)[C@@H]1C[C@@H](O)CN1; hPhe = N[C@@H](CCc1ccccc1)C(=O)O; Tic = O=C(O)[C@@H]1Cc2ccccc2CN1; Tle = CC(C)(C)[C@H](N)C(=O)O; Pip = O=C(O)[C@@H]1CCCCN1
Quantity Kind: Kd

Record request: Kd value, item CN(C)c1cccc2c(S(=O)(=O)N3CCCC[C@H]3C(=O)N[C@H](C(=O)N[C@@H](CCCNC(=N)N)C(=O)O)C(C)(C)C)cccc12 (Dansyl-[Pip]-[Tle]-Arg-OH)
2.9 µM

Record request: Kd value, item CN(C)c1cccc2c(S(=O)(=O)N3CCCC[C@H]3C(=O)N3Cc4ccccc4C[C@H]3C(=O)N[C@@H](CCCNC(=N)N)C(=O)O)cccc12 (Dansyl-[Pip]-[Tic]-Arg-OH)
> 50 µM

Record request: Kd value, item CN(C)c1cccc2c(S(=O)(=O)N3C[C@H](O)C[C@H]3C(=O)N[C@@H](CCc3ccccc3)C(=O)N[C@@H](CCCNC(=N)N)C(=O)O)cccc12 (Dansyl-[Hyp]-[hPhe]-Arg-OH)
> 50 µM
